Assay: qHTS RealTime-Glo MT Cell Viability Assay in HepG2 cells - 8 hour (AID 1224873); also: nearly all actives have a fitted effect of over 55% in size
Settings: RealTime-Glo luminescence; series mostly up to 76.8 µM
Inconclusive results are not listed. Calls of active or inactive are those of the source. Calls follow the shape of the dose curve; as a rule, active = well fitted cell-killing curve with a large enough effect in the repeat runs; inconclusive = weak or mixed curves; inactive = flat fitted curve, though single readings scatter.
Metric name: outcome

CC(C)(C)NC(=O)[C@H]1CC[C@H]2[C@@H]3CC[C@H]4NC(=O)C=C[C@]4(C)[C@H]3CC[C@]12C    inactive
CCC(C)CO (stereo not drawn)    inactive
Cc1cccc(C(=O)O)c1    inactive
O=C(c1ccc(OCCN2CCCCC2)cc1)c1c(-c2ccc(O)cc2)sc2cc(O)ccc12    inactive
Cc1[nH]c(=O)c(C#N)cc1-c1ccncc1    inactive

Just so you know, measured outcome for O=c1oc(=O)c2cc3c(=O)oc(=O)c3cc12 came out at inactive

Memo: CC(=O)CC/C=C(\C)CCC=C(C)C , reported outcome: inactive

get_value(item= CC(C)CC(C)(O)C#CC(C)(O)CC(C)C (stereo not drawn) , readout=outcome) returns inactive

The recorded outcome for entry c1ccncc1 equals inactive

// recorded outcome for Cc1c(OCC(F)(F)F)ccnc1CS(=O)c1nc2ccccc2[nH]1 (stereo not drawn) : inactive

Reported outcome for O=[N+]([O-])c1ccc2c(c1)Cc1ccccc1-2 was inactive

// field: outcome; key: CN(C)CCC=C1c2ccccc2CCc2ccccc21 ; value = inactive

Notebook: Cc1ccc(C)c(O)c1C , outcome read as inactive

The values you see were collected from PubChem BioAssay (Tox21).
